Target: Ribosomal protein S6 kinase beta-1 (Homo sapiens) (UniProt P23443);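 note: reported value is the mean inhibition of p70S6K1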
Sequence (P23443 whole entry, looked up): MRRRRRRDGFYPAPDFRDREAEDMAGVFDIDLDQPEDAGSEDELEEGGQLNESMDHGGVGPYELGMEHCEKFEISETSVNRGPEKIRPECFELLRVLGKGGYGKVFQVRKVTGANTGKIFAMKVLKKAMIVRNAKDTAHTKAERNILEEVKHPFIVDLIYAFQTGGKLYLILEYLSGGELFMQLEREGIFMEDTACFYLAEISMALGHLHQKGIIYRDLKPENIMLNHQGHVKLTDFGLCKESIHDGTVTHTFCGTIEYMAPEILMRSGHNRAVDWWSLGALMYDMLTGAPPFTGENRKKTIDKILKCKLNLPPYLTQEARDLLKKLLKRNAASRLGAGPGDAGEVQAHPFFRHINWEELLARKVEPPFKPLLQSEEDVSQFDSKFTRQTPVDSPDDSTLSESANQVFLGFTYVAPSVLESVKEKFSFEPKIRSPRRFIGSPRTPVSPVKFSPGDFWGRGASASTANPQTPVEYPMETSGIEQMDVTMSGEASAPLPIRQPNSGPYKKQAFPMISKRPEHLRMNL
Settings: at 0.1 µM

Compound String	inhibition / %
NS(=O)(=O)c1ccc(N/N=C2\C(=O)Nc3ccc(Cl)cc32)cc1	1.75
O=C1Nc2ccccc2/C1=C/Nc1ccc2[nH]c(=O)[nH]c2c1	2.55
Nc1ccc(C#Cc2cncnc2Nc2ccc(OCc3cccc(F)c3)c(Cl)c2)cc1	0.9

----------
Molecular target: Serine/threonine-protein kinase Nek7 (Homo sapiens) (UniProt Q8TDX7);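 note: reported values are mean inhibition of NEK7 from the GSK PKIS kinase screening panel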
Sequence (Q8TDX7 whole entry, looked up): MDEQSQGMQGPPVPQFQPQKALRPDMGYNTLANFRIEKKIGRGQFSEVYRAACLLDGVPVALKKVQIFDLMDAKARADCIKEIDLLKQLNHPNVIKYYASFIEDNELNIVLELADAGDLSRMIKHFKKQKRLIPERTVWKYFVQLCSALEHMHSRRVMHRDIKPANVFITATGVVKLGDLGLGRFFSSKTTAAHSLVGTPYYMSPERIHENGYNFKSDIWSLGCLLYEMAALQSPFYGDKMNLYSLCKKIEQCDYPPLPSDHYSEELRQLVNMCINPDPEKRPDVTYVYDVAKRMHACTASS
Conditions: at 1 µM
Parameter Measured: inhibition (%)

Compound	Parameter Measured	Numeric Value
CC(C)c1ccc2c(c1)NC(=O)/C2=N/Nc1ccc(S(N)(=O)=O)cc1	inhibition	1.29
COc1ccc(-c2nn3ncccc3c2-c2ccnc(Nc3cccc(C(F)(F)F)c3)n2)cc1	inhibition	2.05
Nc1nccc(-c2c(-c3ccc(F)cc3)ncn2CCCN2CCOCC2)n1	inhibition	4.4
[O-][S+]1CCN(Cc2ccc(-c3ccc4ncnc(Nc5ccc(OCc6ccccc6)c(Cl)c5)c4c3)o2)CC1	inhibition	5.75
NS(=O)(=O)c1cccc(-c2cc3ccncc3cc2OCc2ccccc2)c1	inhibition	3.78
Cc1ccc2c(-c3ccnc(Nc4cccc(C(F)(F)F)c4)n3)c(-c3ccccc3)nn2n1	inhibition	5.29
NS(=O)(=O)c1ccc(NC=C2C(=O)Nc3ccc4ncsc4c32)cc1	inhibition	13.9
Cc1ccc2c(-c3ccnc(Nc4ccc5c(c4)OCCO5)n3)c(-c3ccc(C(F)(F)F)cc3)nn2n1	inhibition	0
NS(=O)(=O)c1ccc(-c2cc3ccncc3cc2OCc2ccccc2)cc1	inhibition	4.88
O=S(=O)(CCOCc1ccc(-c2ccc3ncnc(Nc4ccc(OCc5cccc(F)c5)c(Cl)c4)c3c2)o1)c1ccccc1	inhibition	5.83
Cc1ccc(Nc2ccnc(Nc3cccc(C(N)=O)c3)n2)cc1O	inhibition	4.4
Cc1nc(-c2ccccc2)n2nc(NCCCN3CCOCC3)ncc12	inhibition	2.34
COC(=O)c1cncc(/C=C/c2c(C)cc(O)cc2C)c1	inhibition	1.56
Cc1ccc(O)cc1Nc1ccnc2ccc(S(C)(=O)=O)cc12	inhibition	4.35
Nc1nccc(C#Cc2cncnc2Nc2ccc(OCc3cccc(F)c3)c(Cl)c2)n1	inhibition	3.35
Cc1ccc(C(=O)NC2CC2)cc1-c1ccc2[nH]ncc2c1	inhibition	-4.5
N#Cc1c(NC(=O)c2ccccc2F)sc2c1CCCC2	inhibition	0.08
NS(=O)(=O)c1cccc(Nc2cc(-c3ccc(F)cc3)n[nH]2)c1	inhibition	4.76
CCCN1CCCC(c2ccc(Nc3nc(Nc4cc(F)ccc4C(N)=O)c4cc[nH]c4n3)c(OC)c2)C1 (stereo not given)	inhibition	7.03
Cc1cc(Cl)cc2c1NC(=O)C2=NNc1ccc(S(N)(=O)=O)cc1	inhibition	1.96
